# Test system: Acinetobacter baumannii
# testMethodNotes: Antibacterial activity against multidrug-resistant Acinetobacter baumannii AYE by antimicrobial susceptibility assay
# Assay type: functional
measuredEndpoint: MIC

Example results:
>  <compound>
CC1(C)S[C@@H]2[C@H](NC(=O)[C@H](C(=O)O)c3ccsc3)C(=O)N2[C@H]1C(=O)O [TICARCILLIN]

>  <measuredEndpoint>
MIC

>  <testValue>
> 256 µg/mL

$$$$
>  <compound>
CC(C)(O/N=C(\C(=O)N[C@@H]1C(=O)N2C(C(=O)[O-])=C(C[n+]3ccccc3)CS[C@H]12)c1csc(N)n1)C(=O)O [CEFTAZIDIME]

>  <measuredEndpoint>
MIC

>  <testValue>
> 256 µg/mL

$$$$
>  <compound>
CO/N=C(\C(=O)N[C@@H]1C(=O)N2C(C(=O)[O-])=C(C[N+]3(C)CCCC3)CS[C@H]12)c1csc(N)n1 [CEFEPIME]

>  <measuredEndpoint>
MIC

>  <testValue>
> 256 µg/mL

$$$$
>  <compound>
O=C(O)c1cn(C2CC2)c2cc(N3CCNCC3)c(F)cc2c1=O [CIPROFLOXACIN]

>  <measuredEndpoint>
MIC

>  <testValue>
> 32 µg/mL

$$$$
>  <compound>
CO[C@H]1/C=C/O[C@@]2(C)Oc3c(C)c(O)c4c(O)c(c(/C=N/N5CCN(C)CC5)c(O)c4c3C2=O)NC(=O)/C(C)=C\C=C\[C@H](C)[C@H](O)[C@@H](C)[C@@H](O)[C@@H](C)[C@H](OC(C)=O)[C@@H]1C [RIFAMPIN]

>  <measuredEndpoint>
MIC

>  <testValue>
16 µg/mL

$$$$

Ask | Write down the reported MIC of C[C@H]1[C@H](NC(=O)/C(=N\OC(C)(C)C(=O)O)c2csc(N)n2)C(=O)N1S(=O)(=O)O [AZTREONAM] , test system: Acinetobacter baumannii.
Reply | > 256 µg/mL

----------
# System: Acinetobacter baumannii
# testMethodNotes: Antibacterial activity against multidrug-resistant Acinetobacter baumannii BM4666 by antimicrobial susceptibility assay
# Type: functional
Threshold check on MIC: strictly below 6 µg/mL is T; on or above 6 µg/mL is F.

Solved entries:
>  <molecule>
C[C@H]1[C@H](NC(=O)/C(=N\OC(C)(C)C(=O)O)c2csc(N)n2)C(=O)N1S(=O)(=O)O [AZTREONAM]

>  <group>
F

$$$$
>  <molecule>
CC(C)(O/N=C(\C(=O)N[C@@H]1C(=O)N2C(C(=O)[O-])=C(C[n+]3ccccc3)CS[C@H]12)c1csc(N)n1)C(=O)O [CEFTAZIDIME]

>  <group>
F

$$$$
>  <molecule>
CCn1cc(C(=O)O)c(=O)c2cc(F)c(N3CCNCC3)cc21 [NORFLOXACIN]

>  <group>
T

$$$$
>  <molecule>
CN(C)c1cc(NC(=O)CNC(C)(C)C)c(O)c2c1C[C@H]1C[C@H]3[C@H](N(C)C)C(O)=C(C(N)=O)C(=O)[C@@]3(O)C(O)=C1C2=O [TIGECYCLINE]

>  <group>
T

$$$$
>  <molecule>
NC[C@H]1O[C@H](O[C@H]2[C@H](O)[C@@H](O[C@H]3O[C@H](CO)[C@@H](O)[C@H](N)[C@H]3O)[C@H](N)C[C@@H]2N)[C@H](N)C[C@@H]1O [TOBRAMYCIN]

>  <group>
T

$$$$
>  <molecule>
CN(C)[C@@H]1C(O)=C(C(N)=O)C(=O)[C@@]2(O)C(O)=C3C(=O)c4c(O)cccc4[C@@](C)(O)[C@H]3C[C@@H]12 [TETRACYCLINE]

>  <group>
F

$$$$
>  <molecule>
CO/N=C(\C(=O)N[C@@H]1C(=O)N2C(C(=O)[O-])=C(C[N+]3(C)CCCC3)CS[C@H]12)c1csc(N)n1 [CEFEPIME]

>  <group>
T

$$$$
>  <molecule>
O=C(N[C@H](CO)[C@H](O)c1ccc([N+](=O)[O-])cc1)C(Cl)Cl [CHLORAMPHENICOL]

>  <group>
F

$$$$

Ask | Please state whether MIC is below 6 µg/mL for CO[C@H]1/C=C/O[C@@]2(C)Oc3c(C)c(O)c4c(O)c(c(/C=N/N5CCN(C)CC5)c(O)c4c3C2=O)NC(=O)/C(C)=C\C=C\[C@H](C)[C@H](O)[C@@H](C)[C@@H](O)[C@@H](C)[C@H](OC(C)=O)[C@@H]1C [RIFAMPIN]
Reply | T

Ask | MIC under 6 µg/mL? Item: CC1(C)S[C@@H]2[C@H](NC(=O)[C@H](C(=O)O)c3ccsc3)C(=O)N2[C@H]1C(=O)O [TICARCILLIN]
Reply | F
